- TARGET: EHMT1 (Homo sapiens)
- Sequence (Q9H9B1 whole entry, species assumed): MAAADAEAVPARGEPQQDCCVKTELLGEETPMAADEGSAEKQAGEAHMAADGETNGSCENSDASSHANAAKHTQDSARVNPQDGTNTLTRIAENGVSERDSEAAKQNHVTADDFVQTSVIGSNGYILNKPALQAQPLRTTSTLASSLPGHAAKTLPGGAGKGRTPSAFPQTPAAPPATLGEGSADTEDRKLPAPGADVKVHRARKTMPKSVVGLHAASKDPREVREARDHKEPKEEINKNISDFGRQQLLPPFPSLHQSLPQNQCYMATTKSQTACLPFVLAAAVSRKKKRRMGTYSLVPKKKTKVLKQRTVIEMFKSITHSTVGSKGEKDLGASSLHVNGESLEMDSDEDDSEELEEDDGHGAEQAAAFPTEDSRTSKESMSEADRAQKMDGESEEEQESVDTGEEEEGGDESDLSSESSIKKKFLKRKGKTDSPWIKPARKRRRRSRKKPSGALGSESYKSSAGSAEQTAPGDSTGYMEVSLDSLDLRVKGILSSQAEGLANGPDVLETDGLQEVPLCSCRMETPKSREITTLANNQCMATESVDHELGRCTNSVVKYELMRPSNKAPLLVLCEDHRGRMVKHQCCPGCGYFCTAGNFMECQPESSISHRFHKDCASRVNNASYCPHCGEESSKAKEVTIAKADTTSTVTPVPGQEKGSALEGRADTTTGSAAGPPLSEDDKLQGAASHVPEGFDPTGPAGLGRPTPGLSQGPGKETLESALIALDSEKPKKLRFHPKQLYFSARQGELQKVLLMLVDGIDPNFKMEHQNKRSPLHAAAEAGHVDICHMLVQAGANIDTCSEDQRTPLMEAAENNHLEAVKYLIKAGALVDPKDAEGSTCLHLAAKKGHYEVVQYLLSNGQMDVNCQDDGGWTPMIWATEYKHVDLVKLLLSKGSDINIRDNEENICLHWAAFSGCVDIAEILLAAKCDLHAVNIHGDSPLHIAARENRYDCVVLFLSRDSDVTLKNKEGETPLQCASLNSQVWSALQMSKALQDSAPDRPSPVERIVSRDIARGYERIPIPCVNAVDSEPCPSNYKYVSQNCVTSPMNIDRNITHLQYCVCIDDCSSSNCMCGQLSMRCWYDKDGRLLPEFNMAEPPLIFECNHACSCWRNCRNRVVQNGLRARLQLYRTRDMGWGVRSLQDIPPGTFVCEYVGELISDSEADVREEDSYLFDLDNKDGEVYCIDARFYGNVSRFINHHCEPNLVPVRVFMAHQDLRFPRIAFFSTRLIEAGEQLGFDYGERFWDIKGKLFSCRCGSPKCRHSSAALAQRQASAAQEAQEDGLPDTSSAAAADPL
- PROTOCOL SUMMARY: EHMT1 enzyme assay on peptide substrate (EHMT1 PEP)
- Format: biochemical
- DETAILS: Table II; read-out: EHMT1 PEP (IC50 μM)
Structures can show the parent of a compound that is named as a salt.
Recorded IC50, one value per entry.
OBSERVATION TYPE: IC50

MOLECULE: COc1ccc(Nc2nccc(N(C)Cc3ccncc3)n2)cc1OCCCN1CCCC1 [Compound 56]
RESULT: 1 to 10 µM
//
MOLECULE: COc1ccc(Nc2nccc(N3CC(C(=O)N(C)C)C3)n2)cc1OCCCN1CCCC1 [Compound 170]
RESULT: > 10 µM
//
MOLECULE: COc1ccc(Nc2nccc(-c3cnn(C)c3)n2)cc1OCCCN1CCCC1 [Compound 224]
RESULT: > 10 µM
//
MOLECULE: COc1ccc(Nc2cc(NCC3CCN(C(C)=O)CC3)cnn2)cc1OCCCN1CCCC1 [Compound 185]
RESULT: 1 to 10 µM
//
MOLECULE: CCCCNc1nc(C)cc(NCC2CCNCC2)n1 [Compound 86]
RESULT: 1 to 10 µM
//
MOLECULE: COc1cnc(Nc2cc(CNC3CCOCC3)ccn2)cc1OCCCN1CCCC1 [Compound 110]
RESULT: 1 to 10 µM
//
MOLECULE: COCCNc1ccnc(Nc2ccc(OC)c(OCCCN3CCCC3)c2)n1 [Compound 27]
RESULT: 0.1 to 1 µM
//
MOLECULE: COc1ccc(Nc2ccnc(NCC3CCNCC3)n2)cc1OCCCN1CCCC1 [Compound 7, hydrochloride]
RESULT: < 0.1 µM
//
MOLECULE: COc1ccc(Nc2ccc3ncn(C)c3c2)cc1OCCCN1CCCC1 [Compound 200]
RESULT: > 10 µM
//
MOLECULE: COc1ccc(Nc2nccc(C)n2)cc1OCCCN1CCCC1 [Compound 174]
RESULT: > 10 µM
//
MOLECULE: COc1ccc(Nc2cccc(NCC3CCNCC3)n2)cc1OCCCN1CCCC1 [Compound 113]
RESULT: 1 to 10 µM
//
MOLECULE: CCCCNc1nccc(C(N)=O)n1 [Compound 80]
RESULT: > 10 µM
//
MOLECULE: COc1ccc(Nc2nccc(NCC3CCN(C)CC3)n2)cc1OCCCN1CCCC1 [Compound 32]
RESULT: < 0.1 µM
//
MOLECULE: CNc1ccnc(Nc2ccc(OC)c(OCCCN3CC[C@@H](F)C3)c2)n1 [Compound 229]
RESULT: 0.1 to 1 µM
//
MOLECULE: COc1ccc(Nc2nccc(CNC3CCOCC3)n2)cc1OCCCN1CCCC1 [Compound 107]
RESULT: > 10 µM
//
MOLECULE: O=C(NCCNc1ccnc(NCC2CCNCC2)n1)c1ccc(N2CCCC2)cc1 [Compound 99]
RESULT: > 10 µM
//
MOLECULE: CCCCNc1nc(C#N)cc(NCC2CCNCC2)n1 [Compound 94]
RESULT: 1 to 10 µM
//
MOLECULE: COc1ccc(Nc2ncc(C)c(NCC3CCN(C(C)=O)CC3)n2)cc1OCCCN1CCCC1 [Compound 55]
RESULT: 0.1 to 1 µM
//
MOLECULE: COc1ccccc1CNc1ccnc(Nc2ccc(OC)c(OCCCN3CCCC3)c2)n1 [Compound 36]
RESULT: 0.1 to 1 µM
//
MOLECULE: COc1ccc(Nc2ncc3ncn(C)c3n2)cc1OCCCN1CCCC1 [Compound 219]
RESULT: > 10 µM
//
MOLECULE: CC(=O)N1CCC(CNc2ccnc(Nc3ccc(C)c(OCCCN4CCCC4)c3)n2)CC1 [Compound 145]
RESULT: 1 to 10 µM
//
MOLECULE: COc1ccc(Nc2nccc(NCC3CCN(C(C)=O)CC3)n2)cc1OCC1CCN(C)C1 (stereo not drawn) [Compound 18]
RESULT: 0.1 to 1 µM
//
MOLECULE: COc1ccc(Nc2nccc(NC3CN(C(C)=O)C3)n2)cc1OCCCN1CCCC1 [Compound 192]
RESULT: 0.1 to 1 µM
//
MOLECULE: COc1ccc(Nc2nccc(N(C)C)n2)cc1OCCCN1CCCC1 [Compound 171]
RESULT: 1 to 10 µM
//
MOLECULE: COc1ccc(Nc2nccc(CNC3CCOCC3)n2)cc1OCCCNc1ccccc1 [Compound 241]
RESULT: > 10 µM
//
MOLECULE: COc1ccc(Nc2nccc(NCC(=O)N(C)c3ccccc3)n2)cc1OCCCN1CCCC1 [Compound 52]
RESULT: 1 to 10 µM
//
MOLECULE: COc1ccc(Nc2nc(C)cc(NCC3CCN(C(C)=O)CC3)n2)cc1OCCCN1CCCC1 [Compound 19]
RESULT: < 0.1 µM
//
MOLECULE: COc1ccc(Nc2nccc(NCCn3cccn3)n2)cc1OCCCN1CCCC1 [Compound 193]
RESULT: 0.1 to 1 µM
//
MOLECULE: COc1ccc(Nc2nccc(NCC3CCN(C(C)=O)CC3)n2)cc1COCCN1CC(F)C1 [Compound 57]
RESULT: 1 to 10 µM
//
MOLECULE: COc1ccc(N(C)c2nccc(NCC3CCN(C(C)=O)CC3)n2)cc1OCCCN1CCCC1 [Compound 158]
RESULT: > 10 µM
//
MOLECULE: COc1ccc(Nc2nccc(NCC3CCOCC3)n2)cc1OCCN1CCOCC1 [Compound 204]
RESULT: 1 to 10 µM
//
MOLECULE: CNc1cccc(Nc2ccc(OC)c(OCCCN3CCCC3)c2)n1 [Compound 176]
RESULT: > 10 µM
//
MOLECULE: COc1ccc(Nc2cc(CNC3CCNCC3)n(C)n2)cc1OCCCN1CCCC1 [Compound 126]
RESULT: > 10 µM
//
MOLECULE: COc1ccc(Nc2nccc(NCCCN(C)C(C)=O)n2)cc1OCCCN1CCCC1 [Compound 44]
RESULT: 0.1 to 1 µM
//
MOLECULE: COc1ccc(Nc2nccc(N3CCCC3)n2)cc1OCCCN1CCCC1 [Compound 124]
RESULT: 1 to 10 µM
//
MOLECULE: COCCNc1nccc(N)n1 [Compound 75]
RESULT: > 10 µM
